ASSAY_TARGET: MDM2 (Homo sapiens, UniProt Q00987)
Sequence (Q00987 whole entry): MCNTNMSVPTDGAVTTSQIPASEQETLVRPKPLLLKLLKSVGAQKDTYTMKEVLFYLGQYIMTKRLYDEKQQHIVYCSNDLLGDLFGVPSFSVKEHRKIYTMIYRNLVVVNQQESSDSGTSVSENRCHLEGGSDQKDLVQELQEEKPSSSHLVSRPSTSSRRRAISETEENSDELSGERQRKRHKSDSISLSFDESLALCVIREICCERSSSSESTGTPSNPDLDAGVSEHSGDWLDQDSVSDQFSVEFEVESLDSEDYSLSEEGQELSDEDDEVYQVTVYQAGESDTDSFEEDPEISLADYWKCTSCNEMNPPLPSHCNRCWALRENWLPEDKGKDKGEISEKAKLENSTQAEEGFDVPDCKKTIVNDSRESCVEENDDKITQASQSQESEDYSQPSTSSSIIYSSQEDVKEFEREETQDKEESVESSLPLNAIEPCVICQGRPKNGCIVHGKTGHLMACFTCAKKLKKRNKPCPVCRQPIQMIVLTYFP
PROTOCOL_DETAILS: MDM2 binding screen: displacement of fluorescent p53 peptide probe FP53 (fluorescence polarization)
CONDITION_NOTES: Acid 14; initial screen; crude macrocycle reactions
Numbered stars: 1 amine (or outer) side, 2 acyl side, 3 side chain; on linkers, the order of the positions; unused ones are H or OH. Bridge positions count the residues as written; N and C are the ends. Square brackets hold non-standard residues; d marks the D form. Peptide text beside a SMILES is read from it. * marks the point of attachment. ξ: configuration not given here. ξPro(4-NHCO(5-Cl-2-thienyl)) = O=C(NC1CNC(C(=O)O)C1)c1ccc(Cl)s1; 2Thenoyl(5-Cl) = O=C(c1ccc(Cl)s1)*; Cysteamide = C(CS[*:3])N[*:1]; Dap = NC[C@H](N)C(=O)O; Mpa = O=C(O)CCS
Label key: t means fraction fluorescent probe displaced, Screen under 0.08; f means fraction fluorescent probe displaced, Screen of 0.08 or more.

Here are 6 molecules together with their reported answers.
MOLECULE	CAT
O=C1CCSSCCNC(=O)c2cccc(c2)CNC(=O)C(Cc2c[nH]c3ccccc23)NC(=O)C2(CCN(C(=O)c3ccc(Cl)s3)CC2)N1 (centres unmarked) [X D6 W B5 Acid 14]	f
O=C1CCSSCCNC(=O)[C@H](CNC(=O)c2ccc(Cl)s2)NC(=O)[C@H](Cc2ccccc2)NC(=O)CCN1 [X B2 F D3 Acid 14]	t
O=C1CCSSCCNC(=O)[C@H](CNC(=O)c2ccc(Cl)s2)NC(=O)c2cccc(c2)CNC(=O)[C@H](Cc2c[nH]c3ccccc23)N1 [X W B5 D3 Acid 14]	f
O=C1CCSSCCNC(=O)C2CCCN(C2)C(=O)C2CC(NC(=O)c3ccc(Cl)s3)CN2C(=O)C(Cc2ccccc2)N1 (centres unmarked) [X F D5 B4 Acid 14]	t
O=C(NC1CC2C(=O)NC(Cc3c[nH]c4ccccc34)C(=O)NCCSSCCC(=O)N3CCCC3C(=O)N2C1)c1ccc(Cl)s1 (centres unmarked) [X B1 D5 W Acid 14] ([Mpa]P[ξPro(4-NHCO(5-Cl-2-thienyl))]W-Cysteamide; disulfide 1-C; configuration not given here)	f
O=C1CCSSCCNC(=O)[C@H](Cc2ccccc2)NC(=O)CCNC(=O)[C@H](CNC(=O)c2ccc(Cl)s2)N1 [X D3 B2 F Acid 14]	f

Answer whether the molecule O=C1CCSSCCNC(=O)C(Cc2c[nH]c3ccccc23)NC(=O)C2CN(C(=O)c3ccc(Cl)s3)CCN2C(=O)CCN1 (centres unmarked) [X B2 D7 W Acid 14] has fraction fluorescent probe displaced, Screen strictly less than 0.08
f

Quick check: does O=C1CCSSCCNC(=O)[C@H](Cc2ccccc2)NC(=O)[C@@H]2CCCN2C(=O)[C@H](CNC(=O)c2ccc(Cl)s2)N1 [X D3 B1 F Acid 14] ([Mpa][Dap](2Thenoyl(5-Cl))PF-Cysteamide; disulfide 1-C) have fraction fluorescent probe displaced, Screen under 0.08?
f

Is fraction fluorescent probe displaced, Screen strictly under 0.08 for the entry O=C1NCCSSCCC(=O)N2CCN(C(=O)c3ccc(Cl)s3)CC2C(=O)NC(Cc2ccccc2)C(=O)NCc2cccc1c2 (mixture of isomers) [X D7 F B5 Acid 14] ?
f

Does the reported fraction fluorescent probe displaced, Screen of O=C1CCSSCCNC(=O)[C@H](Cc2c[nH]c3ccccc23)NC(=O)[C@@H]2CCCN2C(=O)[C@H](CNC(=O)c2ccc(Cl)s2)N1 [X D3 B1 W Acid 14] ([Mpa][Dap](2Thenoyl(5-Cl))PW-Cysteamide; disulfide 1-C) stay below 0.08?
f

Reference for the values: paper PMC9250534
